System: SNB-19 CNS
Assay: NCI-60 one-dose screen, 48 h
Details: 10 µM unless noted
Description: Growth inhibition of the SNB-19 human tumor cell line is measured as a screen for anti-cancer activity. Cells are grown in 96 well plates and exposed to the test compound for 48 hours. Compounds are tested at a single concentration, which is 10^-5 M for most compounds. The reported endpoint is percent growth (GI% or GIPRCNT), where numbers from 0 - 100% represent growth inhibition, and numbers from -100% - 0 represent cell death. For example, a value of 40 represents 60% growth inhibition. […]
About 83,000 compounds went through this panel and 20% of them were active in at least one assay; those are over-represented in the sample as a whole. Calls of active or inactive are those of the source. The calls were made as follows: active = growth percent below 10; inactive = the rest.
Your response should consist of one outcome taken from 1.0 for active, 0.0 for inactive

CC1(O)CCC(Nc2cc(-c3ccc(C(F)(F)F)cc3)c(C#N)c3nc4ccccc4n23)CC1 (stereo not drawn) ... 0.0

Incoming: Hi, sorry to bother you, what did the test record for Cc1ccc(NC(=O)NC(=O)CSc2nc3ccccc3nc2C)cc1 ?
Outgoing: 0.0

Incoming: Identify the outcome logged in this assay for the compound shown: CC(C)C1CCC(C)C(C2(C#N)C(N)=NC(N)=C2C#N)C1=O (stereo not drawn)
Outgoing: 0.0

Incoming: What was the test verdict on Clc1ccc(/C=C/c2cc(N3CCOCC3)c3cc(Cl)c(Cl)cc3n2)cc1 ?
Outgoing: 0.0

Incoming: Assay outcome for O=C1NC(=O)/C(=C/c2ccc3nccc(-c4ccncc4)c3c2)S1 : what was it?
Outgoing: 1.0

Incoming: Which outcome was entered for the compound COc1cc(Nc2ncc3c(n2)-c2ccc(Cl)cc2C(c2c(F)cccc2OC)=NC3)ccc1C(=O)O in this test?
Outgoing: 0.0
